Exercise: state measured mass density for each of the compounds provided.
# Applied Conditions: 353.15 K; 30000 kPa; Liquid; Vibrating tube method
Record the value in kg/m3, omitting the unit from your answer.

[in] Output mass density of CCn1cc[n+](C)c1.O=S(=O)([O-])C(F)(F)F [1-ethyl-3-methylimidazolium trifluoromethanesulfonate]
[out] 1344.8

[in] Using the record for "CCC[N+]1(C)CCCC1.O=S(=O)([N-]S(=O)(=O)C(F)(F)F)C(F)(F)F" , state its measured mass density.
[out] 1404.2

[in] Provide only the value of recorded mass density for "CCC[n+]1cccc(C)c1.O=S(=O)([N-]S(=O)(=O)C(F)(F)F)C(F)(F)F"
[out] 1419

[in] Tell me its mass density given "CCCC[N+]1(C)CCCC1.O=S(=O)([N-]S(=O)(=O)C(F)(F)F)C(F)(F)F" as the entry.
[out] 1375.7

[in] Tell me mass density reported for "CCC[N+]1(C)CCCCC1.O=S(=O)([N-]S(=O)(=O)C(F)(F)F)C(F)(F)F"
[out] 1382.1

FYI, the data here is from the NIST ThermoML archive (doi:10.1021/je700670k).
